Molecular target: CXCR4 (Homo sapiens, UniProt P61073)
Sequence (P61073 whole entry): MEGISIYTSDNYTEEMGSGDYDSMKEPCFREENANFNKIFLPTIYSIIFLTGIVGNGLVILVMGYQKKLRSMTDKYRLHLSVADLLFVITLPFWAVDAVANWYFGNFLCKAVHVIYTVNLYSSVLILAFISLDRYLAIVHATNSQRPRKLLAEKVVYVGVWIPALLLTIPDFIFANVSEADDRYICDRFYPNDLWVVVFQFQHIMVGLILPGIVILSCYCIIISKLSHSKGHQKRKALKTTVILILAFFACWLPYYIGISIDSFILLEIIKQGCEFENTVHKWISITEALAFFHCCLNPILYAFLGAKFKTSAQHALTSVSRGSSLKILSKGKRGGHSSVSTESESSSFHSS
Assay: Competition binding assay vs [^68Ga]Pentixafor in PC3-CXCR4 cells
Conditions: vs 100 nM [^68Ga]Pentixafor, PC3-CXCR4 cells, 60 min 37 °C
OUTCOME_MEASURE: pIC50
Remember, pIC50 is on a log scale: it is -log10 of the molar concentration.

Worked set:
Prompt: Fill in: pIC50 of "FCCn1cc(-c2cc(CN3CCCNCCNCCCNCC3)ccc2CNCc2ccccn2)nn1" is ___
Response: 6.66

Prompt: Now the compound "FCCn1cc(-c2cc(CNCc3ccccn3)ccc2CN2CCCNCCNCCCNCC2)nn1"
Response: 6.45

Prompt: Now the compound "FCCn1cc(-c2cc(CN3CCCNCCNCCCNCC3)ccc2CN2CCCNCCNCCCNCC2)nn1"
Response: 6.40

Prompt: Now the compound "Fc1cccc(CNCc2ccc(CN3CCCNCCNCCCNCC3)cc2)n1"
Response: 8.20

Prompt: Now the compound "FCCn1cc(CCNCc2ccc(CN3CCCNCCNCCCNCC3)cc2)nn1"
Response: 6.29

More entries:
Prompt: Fill in: pIC50 of "FCCn1cc(CNCc2ccc(CN3CCCNCCNCCCNCC3)cc2)nn1" is ___
Response: 6.22

----------
System: PC3-CXCR4 xenograft tumors
Experiment: Biodistribution in mice bearing bilateral PC3-WT/PC3-CXCR4 xenograft tumors
Format: in vivo, BALB/c mice
Details: 1 h p.i.
OUTCOME_MEASURE: PC3-CXCR4 Tumor-to-Tissue Ratio Bone
A bare number is all that is needed in reply.

Worked set:
Prompt: Fill in: PC3-CXCR4 Tumor-to-Tissue Ratio Bone of "FCCn1cc(CCNCc2ccc(CN3CCCNCCNCCCNCC3)cc2)nn1" is ___
Response: 4.0

Prompt: Now the compound "FCCn1cc(-c2cc(CNCc3ccccn3)ccc2CN2CCCNCCNCCCNCC2)nn1"
Response: 1.4

Prompt: Now the compound "FCCn1cc(CNCc2ccc(CN3CCCNCCNCCCNCC3)cc2)nn1"
Response: 5.9

// moving on: another record for PC3-CXCR4 Tumor-to-Tissue Ratio Bone
Prompt: Fill in: PC3-CXCR4 Tumor-to-Tissue Ratio Bone of "FCCn1cc(-c2cc(CN3CCCNCCNCCCNCC3)ccc2CNCc2ccccn2)nn1" is ___
Response: 5.7

----------
Test system: PC3-CXCR4 xenograft tumors
Experiment: Biodistribution in mice bearing bilateral PC3-WT/PC3-CXCR4 xenograft tumors
Type: in vivo, BALB/c mice
Settings: 1 h p.i.
OUTCOME_MEASURE: PC3-CXCR4 Tumor-to-Tissue Ratio PC3-WT

Prompt: Fill in: PC3-CXCR4 Tumor-to-Tissue Ratio PC3-WT of "FCCn1cc(CNCc2ccc(CN3CCCNCCNCCCNCC3)cc2)nn1" is ___
Response: 1.9 ± 0.3

Prompt: Now the compound "FCCn1cc(-c2cc(CNCc3ccccn3)ccc2CN2CCCNCCNCCCNCC2)nn1"
Response: 2.0 ± 0.4

Prompt: Now the compound "FCCn1cc(CCNCc2ccc(CN3CCCNCCNCCCNCC3)cc2)nn1"
Response: 2.5 ± 0.3

// moving on: another record for PC3-CXCR4 Tumor-to-Tissue Ratio PC3-WT
Prompt: Fill in: PC3-CXCR4 Tumor-to-Tissue Ratio PC3-WT of "FCCn1cc(-c2cc(CN3CCCNCCNCCCNCC3)ccc2CNCc2ccccn2)nn1" is ___
Response: 2.5 ± 0.4
